assay system: feline FcRn complex (FcRn-α subunit and β-microglobulin), biotin labeled (feline)
assay method text: SPR, pH 6
test readout: Kd (nM)
Give bare numbers, in nM.

Answered cases to consult:
INSERT INTO measurements (binder, test_readout, recorded_number) VALUES
  ('feline IgG1a S252R/S434H (antibody, part only; not given: Variable domains, not shown: another chain or arm of the molecule) constant: ASTTAPSVFPLAPSCGTTSGATVALACLVLGYFPEPVTVSWNSGALTSGVHTFPAVLQASGLYSLSSMVTVPSSRWLSDTFTCNVAHPPSNTKVDKTVRKTDHPPGPKPCDCPKCPPPEMLGGPSIFIFPPKPKDTLRISRTPEVTCLVVDLGPDDSDVQITWFVDNTQVYTAKTSPREEQFNSTYRVVSVLPILHQDWLKGKEFKCKVNSKSLPSPIERTISKAKGQPHEPQVYVLPPAQEELSRNKVSVTCLIKSFHPPDIAVEWEITGQPEPENNYRTTPPQLDSDGTYFVYSKLSVDRSHWQRGNTYTCSVSHEALHHHHTQKSLTQSPGK', 'Kd', 2.21),
  ('feline IgG1a S434I (antibody, part only; not given: Variable domains, not shown: another chain or arm of the molecule) constant: ASTTAPSVFPLAPSCGTTSGATVALACLVLGYFPEPVTVSWNSGALTSGVHTFPAVLQASGLYSLSSMVTVPSSRWLSDTFTCNVAHPPSNTKVDKTVRKTDHPPGPKPCDCPKCPPPEMLGGPSIFIFPPKPKDTLSISRTPEVTCLVVDLGPDDSDVQITWFVDNTQVYTAKTSPREEQFNSTYRVVSVLPILHQDWLKGKEFKCKVNSKSLPSPIERTISKAKGQPHEPQVYVLPPAQEELSRNKVSVTCLIKSFHPPDIAVEWEITGQPEPENNYRTTPPQLDSDGTYFVYSKLSVDRSHWQRGNTYTCSVSHEALHIHHTQKSLTQSPGK', 'Kd', 14.4),
  ('feline IgG1a S434R (antibody, part only; not given: Variable domains, not shown: another chain or arm of the molecule) constant: ASTTAPSVFPLAPSCGTTSGATVALACLVLGYFPEPVTVSWNSGALTSGVHTFPAVLQASGLYSLSSMVTVPSSRWLSDTFTCNVAHPPSNTKVDKTVRKTDHPPGPKPCDCPKCPPPEMLGGPSIFIFPPKPKDTLSISRTPEVTCLVVDLGPDDSDVQITWFVDNTQVYTAKTSPREEQFNSTYRVVSVLPILHQDWLKGKEFKCKVNSKSLPSPIERTISKAKGQPHEPQVYVLPPAQEELSRNKVSVTCLIKSFHPPDIAVEWEITGQPEPENNYRTTPPQLDSDGTYFVYSKLSVDRSHWQRGNTYTCSVSHEALHRHHTQKSLTQSPGK', 'Kd', 1.19);

The record that follows has no Kd shown yet.
[ask] What does the data say about its Kd? Entry: feline IgG1a D312K (antibody, part only; not given: Variable domains, not shown: another chain or arm of the molecule) constant: ASTTAPSVFPLAPSCGTTSGATVALACLVLGYFPEPVTVSWNSGALTSGVHTFPAVLQASGLYSLSSMVTVPSSRWLSDTFTCNVAHPPSNTKVDKTVRKTDHPPGPKPCDCPKCPPPEMLGGPSIFIFPPKPKDTLSISRTPEVTCLVVDLGPDDSDVQITWFVDNTQVYTAKTSPREEQFNSTYRVVSVLPILHQKWLKGKEFKCKVNSKSLPSPIERTISKAKGQPHEPQVYVLPPAQEELSRNKVSVTCLIKSFHPPDIAVEWEITGQPEPENNYRTTPPQLDSDGTYFVYSKLSVDRSHWQRGNTYTCSVSHEALHSHHTQKSLTQSPGK
[reply] 5.86
